Target: SIRT1 (Homo sapiens)
Sequence (Q96EB6 1-747): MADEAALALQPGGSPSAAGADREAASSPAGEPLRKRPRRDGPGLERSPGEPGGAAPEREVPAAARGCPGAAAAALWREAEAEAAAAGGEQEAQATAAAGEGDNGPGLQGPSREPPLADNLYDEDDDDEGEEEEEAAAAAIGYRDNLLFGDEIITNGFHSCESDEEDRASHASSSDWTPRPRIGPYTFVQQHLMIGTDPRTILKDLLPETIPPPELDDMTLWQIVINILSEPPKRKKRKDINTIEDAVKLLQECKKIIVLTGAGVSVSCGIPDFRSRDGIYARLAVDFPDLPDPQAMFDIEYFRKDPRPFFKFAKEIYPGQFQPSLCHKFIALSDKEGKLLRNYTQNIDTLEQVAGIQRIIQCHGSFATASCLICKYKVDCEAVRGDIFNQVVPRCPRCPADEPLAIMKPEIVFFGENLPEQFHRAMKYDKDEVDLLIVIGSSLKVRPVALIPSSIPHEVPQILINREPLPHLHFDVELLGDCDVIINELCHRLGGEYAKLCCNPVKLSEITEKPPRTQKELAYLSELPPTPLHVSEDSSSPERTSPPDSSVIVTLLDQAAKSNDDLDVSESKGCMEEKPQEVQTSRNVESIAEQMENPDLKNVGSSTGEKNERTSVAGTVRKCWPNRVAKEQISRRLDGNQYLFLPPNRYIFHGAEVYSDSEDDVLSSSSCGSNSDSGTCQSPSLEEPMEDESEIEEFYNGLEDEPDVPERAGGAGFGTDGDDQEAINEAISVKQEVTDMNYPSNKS
Assay: Mass spectrometry based assay to identify modulators of SIRT1 activity (deacetylation of p53-based acetylated peptide substrate)
Type: biochemical
Conditions: 25 min, SIRT1 activation, read-out: % FOLD ACT. (percent maximum fold activation)
Listed here are molecules together with their documented Emax.

Example results:
>>> result("O=C(Nc1ccnc(N2CCCC2)c1)N1CCCOc2ccc(-c3cccc(Cl)c3)nc21 [Compound 609]")
"> 200%"
>>> result("O=C(Nc1ccncn1)N1CCCC(F)(F)c2ccc(-c3cccc(Cl)c3)nc21 [Compound 799]")
"≤ 200%"
>>> result("Cc1cc(-c2cccc(Cl)c2)nc2c1OCCN2C(=O)Nc1ccncc1F [Compound 687]")
"> 200%"

Req: Suppose we examine the molecule Cc1csc(NC(=O)N2CC(=O)N(C)c3ccc(-c4cccc(C(F)(F)F)c4)nc32)n1 [Compound 521] ; what Emax value has been reported?
Resp: ≤ 200%

Req: I have this molecule here, O=C(Nc1cncc(OCC(O)CO)n1)N1CCc2ccc(-c3cccc(C(F)(F)F)c3)nc21 (centres unmarked) [Compound 868] , and I need its recorded Emax.
Resp: > 200%

Req: Consider the molecule O=C(Nc1ccnc(OC[C@H](O)CO)n1)N1CCC(F)(F)c2ccc(-c3cccc(C(F)(F)F)c3)nc21 [Compound 825] and give its measured Emax.
Resp: > 200%

Req: Query: Emax; subject: O=C(Nc1ccnc(N2CCC2)c1)N1CCCOc2ccc(-c3cccc(Cl)c3)nc21 [Compound 608]
Resp: > 200%

Req: Return reported Emax; argument: O=C(Nc1cccc(N2CC3(COC3)C2)n1)N1CCc2ccc(-c3cccc(C(F)(F)F)c3)nc21 [Compound 877]
Resp: > 200%

Req: Consider the molecule Cc1csc(NC(=O)N2CC(C)(C)Oc3ccc(-c4cccc(N5CCCC5)c4)nc32)n1 [Compound 606] and give its measured Emax.
Resp: ≤ 200%

The reported measurements were obtained from patent US9556201B2.
